# Protocol details: Ex vivo biodistribution in NCI-H727 tumor-bearing mice
# Test conditions: female, BALB/c nude, mouse, in vivo, 1.48 MBq, total radioactivity, Biodistribution, Intestine
Endpoint name: tissue uptake at 1 h (%ID/g)
Give just the number in %ID/g; leave the unit off.

Input: If you can, please state the reported tissue uptake at 1 h value of C[C@@H](O)[C@H](NC(=O)[C@@H]1CSSC[C@H](NC(=O)[C@@H](Cc2ccccc2)NC(=O)CN2CCN(CC(=O)O)CCN(CC(=O)O)CCN(CC(=O)O)CC2)C(=O)N[C@@H](Cc2ccc(O)cc2)C(=O)N[C@H](Cc2c[nH]c3ccccc23)C(=O)N[C@@H](CCCCN)C(=O)N[C@@H]([C@@H](C)O)C(=O)N1)C(=O)O [[^68Ga]Ga-DOTA-TATE, metal not drawn, reference compound] .
Output: 1.48

Hey, just so you know, these numbers are from paper PMC11677724.
